meta.source: ChEMBL document CHEMBL1914287

Test: Binding affinity to sigma 2 receptor by radioligand displacement assay
quantity-kind: Ki
State the value with its unit after it.

Ask: Using the record for FCCC1OC2(CCN(Cc3ccccc3)CC2)c2ccccc21 (stereo unspecified) , state its measured Ki.
Result: 0.785 µM

----------
Test: Binding affinity to sigma 2 receptor
quantity-kind: Ki (nM)
Kindly answer with a numeric value in nM, unit omitted.

Ask: Using the record for N#Cc1ccc(OCC2CCN(CCCF)CC2)cc1 , state its measured Ki.
Result: 144

----------
Biological target: Sigma non-opioid intracellular receptor 1 (Homo sapiens)
Sequence (Q99720 whole entry): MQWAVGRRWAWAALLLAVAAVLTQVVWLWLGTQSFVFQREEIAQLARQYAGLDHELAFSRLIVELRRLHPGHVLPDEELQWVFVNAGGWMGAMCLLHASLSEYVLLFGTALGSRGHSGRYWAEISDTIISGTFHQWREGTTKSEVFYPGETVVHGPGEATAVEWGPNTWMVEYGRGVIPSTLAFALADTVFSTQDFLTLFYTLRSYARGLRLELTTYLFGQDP
Experiment: Binding affinity to sigma 1 receptor by radioligand displacement assay
quantity-kind: pKi
API: returns pKi as number; meaning -log10 of concentration in mol/L.

Ask: Using the record for FCCC1OC2(CCN(Cc3ccccc3)CC2)c2ccccc21 (stereo unspecified) , state its measured pKi.
Result: 9.23
